OBSERVATION TYPE: pIC50
pIC50 field: float, defined as -log10 of concentration (mol/L).

Report pIC50 under test system UniProt:P53350 for `O=c1c2sc(Cl)cc2n2c(=S)[nH]nc2n1CC1CC1` .
8.60

* * *

# TARGET OF ASSAY: 5-HT2A (Homo sapiens, UniProt P28223)
# Sequence (P28223 whole entry, species assumed): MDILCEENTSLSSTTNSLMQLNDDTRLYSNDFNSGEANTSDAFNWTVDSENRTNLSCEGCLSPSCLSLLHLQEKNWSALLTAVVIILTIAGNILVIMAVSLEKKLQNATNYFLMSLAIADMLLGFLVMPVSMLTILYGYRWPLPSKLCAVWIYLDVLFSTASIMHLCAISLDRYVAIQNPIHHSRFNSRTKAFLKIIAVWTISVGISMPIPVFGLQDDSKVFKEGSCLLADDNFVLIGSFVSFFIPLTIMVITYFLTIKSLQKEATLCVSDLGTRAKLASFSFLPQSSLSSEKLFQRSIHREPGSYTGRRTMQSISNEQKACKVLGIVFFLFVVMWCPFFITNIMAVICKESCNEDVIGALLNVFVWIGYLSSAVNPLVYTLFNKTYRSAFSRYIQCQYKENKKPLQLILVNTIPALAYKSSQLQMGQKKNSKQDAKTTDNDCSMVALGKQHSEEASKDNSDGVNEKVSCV
OBSERVATION TYPE: Ki (µM)
Please give a number only; it is taken to be in µM.

Report Ki under test system 5-HT2A (Homo sapiens, UniProt P28223) for `Cn1cnc([N+](=O)[O-])c1Sc1nnc2n(CC3CC3)c(=O)c3sc(Cl)cc3n12` .
9.2

* * *

# TARGET OF ASSAY: full-length Plk1 / biotinylated PBIP1 phospho-T78 peptide interaction (Homo sapiens)
# Construct: HA; EGFP; expressed in transfected cells; host or cells: HEK293A cells infected with adenovirus; total lysates
# Sequence (P53350 whole entry): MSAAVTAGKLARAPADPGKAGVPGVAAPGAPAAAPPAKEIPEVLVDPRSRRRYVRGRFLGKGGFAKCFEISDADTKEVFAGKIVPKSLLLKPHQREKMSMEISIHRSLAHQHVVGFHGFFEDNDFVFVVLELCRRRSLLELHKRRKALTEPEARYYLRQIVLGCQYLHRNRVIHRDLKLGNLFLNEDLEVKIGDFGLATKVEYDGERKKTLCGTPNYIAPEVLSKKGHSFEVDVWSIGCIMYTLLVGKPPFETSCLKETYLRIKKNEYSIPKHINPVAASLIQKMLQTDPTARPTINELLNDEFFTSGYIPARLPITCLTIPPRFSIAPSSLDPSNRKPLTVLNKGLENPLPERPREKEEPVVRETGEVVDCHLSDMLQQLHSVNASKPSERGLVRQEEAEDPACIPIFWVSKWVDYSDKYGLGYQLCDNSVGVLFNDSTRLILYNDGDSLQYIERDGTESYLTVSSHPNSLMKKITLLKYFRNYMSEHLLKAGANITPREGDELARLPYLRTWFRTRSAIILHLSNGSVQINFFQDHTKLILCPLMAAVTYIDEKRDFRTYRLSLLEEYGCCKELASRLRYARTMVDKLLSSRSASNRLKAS
# TEST: ELISA-based PBD1-binding inhibition assay
# COND: at least three independent experiments; read-out: ELISA (IC50) Mean ± SEM
pIC50: −log10 of the molar value.
OBSERVATION TYPE: pIC50

Report pIC50 under test system full-length Plk1 / biotinylated PBIP1 phospho-T78 peptide interaction (Homo sapiens) for `Cn1cnc([N+](=O)[O-])c1Sc1nnc2n(CC3CC3)c(=O)c3sc(Cl)cc3n12` .
< 4.60

Report pIC50 under test system full-length Plk1 / biotinylated PBIP1 phospho-T78 peptide interaction (Homo sapiens) for `CCCn1c(=O)c2sc(Cl)cc2n2c(Sc3c([N+](=O)[O-])ncn3C)nnc12` .
< 4.30

Report pIC50 under test system full-length Plk1 / biotinylated PBIP1 phospho-T78 peptide interaction (Homo sapiens) for `CCCn1c(=O)c2sc(C(C)(C)C)cc2n2c(Sc3c([N+](=O)[O-])ncn3C)nnc12` .
< 4.30

Report pIC50 under test system full-length Plk1 / biotinylated PBIP1 phospho-T78 peptide interaction (Homo sapiens) for O=C(CCCCC1SCC2NC(=O)NC21)NCCOCCOCCOCCOCCC(=O)NCCCn1c(=O)c2cc(F)ccc2n2c(=S)[nH]nc12 (centres unmarked) .
5.03

Report pIC50 under test system full-length Plk1 / biotinylated PBIP1 phospho-T78 peptide interaction (Homo sapiens) for `CCCn1c(=O)c2oc3ccccc3c2n2c(Sc3c([N+](=O)[O-])ncn3C)nnc12` .
< 4.30

Report pIC50 under test system full-length Plk1 / biotinylated PBIP1 phospho-T78 peptide interaction (Homo sapiens) for `CCCn1c(=O)c2oc3cccc(F)c3c2n2c(Sc3c([N+](=O)[O-])ncn3C)nnc12` .
< 4.30

Report pIC50 under test system full-length Plk1 / biotinylated PBIP1 phospho-T78 peptide interaction (Homo sapiens) for `CCCn1c(=O)c2sccc2n2c(Sc3c([N+](=O)[O-])ncn3C)nnc12` .
< 4.30

Report pIC50 under test system full-length Plk1 / biotinylated PBIP1 phospho-T78 peptide interaction (Homo sapiens) for `O=c1c2sc(Cl)cc2n2c(=S)[nH]nc2n1CC1CC1` .
5.85

Report pIC50 under test system full-length Plk1 / biotinylated PBIP1 phospho-T78 peptide interaction (Homo sapiens) for `Cc1cc2c(s1)c(=O)n(CC1CC1)c1nnc(Sc3c([N+](=O)[O-])ncn3C)n21` .
< 4.30

Report pIC50 under test system full-length Plk1 / biotinylated PBIP1 phospho-T78 peptide interaction (Homo sapiens) for `Cc1cc2c(s1)c(=O)n(CC1CC1)c1n[nH]c(=S)n21` .
5.78

Report pIC50 under test system full-length Plk1 / biotinylated PBIP1 phospho-T78 peptide interaction (Homo sapiens) for `CCCn1c(=O)c2sc3ccccc3c2n2c(Sc3c([N+](=O)[O-])ncn3C)nnc12` .
< 4.30
